Where do these numbers come from? They come from patent US20250258178A1.

TARGET: T1, human histidine-rich glycoprotein (HRG), purified from human plasma (human, UniProt P04196 19-525)
T1 construct: also called human purified HRG; human purified HRG protein
T1 sequence: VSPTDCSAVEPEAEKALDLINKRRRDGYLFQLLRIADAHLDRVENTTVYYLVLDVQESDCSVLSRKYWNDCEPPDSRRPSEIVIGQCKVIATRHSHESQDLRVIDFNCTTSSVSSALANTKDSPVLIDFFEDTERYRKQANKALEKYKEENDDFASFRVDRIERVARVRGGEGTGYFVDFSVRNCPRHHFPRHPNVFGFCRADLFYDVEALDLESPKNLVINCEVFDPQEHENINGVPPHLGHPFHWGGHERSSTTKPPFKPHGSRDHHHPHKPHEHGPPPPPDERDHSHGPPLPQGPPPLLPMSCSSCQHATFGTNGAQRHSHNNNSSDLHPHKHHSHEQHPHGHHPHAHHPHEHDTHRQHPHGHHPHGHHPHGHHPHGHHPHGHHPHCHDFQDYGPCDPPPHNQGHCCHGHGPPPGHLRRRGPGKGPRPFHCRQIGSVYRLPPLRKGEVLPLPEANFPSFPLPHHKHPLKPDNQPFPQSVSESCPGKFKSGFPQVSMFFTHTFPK
ASSAY_INFO: sandwich ELISA, HRG captured by solid phase 6-12A-10B-9G
MEASURE: absorbance at 450 nm (OD450)

anti-HRG monoclonal antibody 75-2D (antibody, V domains shown, Mouse hybridoma monoclonal; also called clone No. 75-2D) VH: QVQLQQSGAELMKPGASVKISCKATGYTFSSYWIEWVKQRPGHGLEWIGEILPGSGRTNYNEKFKGKATFTADTSSNTAYMQLSSLTSEDSAVYYCARYSYFYYFDYWGQGTTLTVSS VL: DNVLTQSPAIMSASLGERVTMTCTASSSVSSSYLHWYQQKPGSSPKLWIYSTSNLASGVPARFSGSGSGTSYSLTISSMEAEDAATYYCHQYHRSPWTFGGGTKLEIK; ≥ 3 od

stdin: For the binder anti-HRG monoclonal antibody 3-4E (antibody, V domains shown, Mouse (BALB/c) hybridoma monoclonal, Protein A purified; biotin-labeled when used as detection antibody) VH: QVQLQQSGAELMKPGASVKISCKATGYTFSTFWMEWVKQRPGHGLEWIGEILPGSGNANYNEKFKGKATFTADTSSNTAYMQLSSLTSEDSAVYYCAIHYYGYGFAYWGQGTLVTVSA VL: DNVLTQSPAIMSASLGERVTMTCTASSSVSSSYLHWYQQKPGSSPKLWIYTTSNLASGVPVRFSGSGSGTSYSLTISSMEAEDAATYYCHQYHRSPWTFGGGTKLEIK , give its measured absorbance at 450 nm (OD450) value.
stdout: ≥ 3 od

stdin: For the binder anti-HRG monoclonal antibody 69-1A (antibody, V domains shown, Mouse hybridoma monoclonal; also called clone No. 69-1A) VH: EVKLEESGGGLVQPGGSMKLSCAASGFTFSDAWMDWVRQSPEKGLEWVAEIRSKANNHGTYYAESVKGRFTISRDDSKSSVYLRMNSLSAEDTGIYYCTRPFAYWGQGTLVTVSA VL: DVVVTQTPLSLPVSLGDQASISCRSSQSLVHIDGNTYFHWYVQKPGQSPKLLIYKVSNRFSGVPDRFSGSGSGTDFTLKISRVEAEDLGVYFCSQSTHVPLTFGAGTKLELK , give its measured absorbance at 450 nm (OD450) value.
stdout: 2 to 3 od

stdin: For the binder anti-HRG monoclonal antibody 65-3A (antibody, V domains shown, Mouse hybridoma monoclonal) VH: QVILKESGPGILQPSQTLSLTCSFSGFSLSTSGVGVSWIRQPSGKGLEWLAHIYWDDDKHYNPSLKSRLTISKDTSRNQVFLRITSVDTADTATYYCALGTVGGPWFPYWGQGTLVTVSA VL: DVQMNQSHKFMSTSVGDRVSITCKASQDVSTAVAWYQQKPGQSPKILIYWASIRHTGVPDRFTGSGSGTDYTLTISSVQAEDLTLYYCQQHYSTPWTFGGGTKLEIK , give its measured absorbance at 450 nm (OD450) value.
stdout: ≥ 3 od
